- System: Escherichia coli
- assay_info: Antimicrobial activity against tolC-deficient Escherichia coli K1 assessed as inhibition of LPS biosynthesis at 32 ug/ml after 5 hrs by SDS-PAGE analysis
- Type: functional, organism-based
Active and inactive are the calls of the source. The calls are words filed in the database; no cut-off is given here.
Return exactly one item of yes = active, no = inactive

Enquiry: Which outcome was assigned to O=C(COc1ccc2sc(CNc3nncc(-c4c(Cl)cccc4Cl)n3)nc2c1)NCCO in this test?
Return: yes

Enquiry: Which outcome was assigned to NCCNCCNC(=O)COc1ccc2sc(CNc3nncc(-c4c(Cl)cccc4Cl)n3)nc2c1 in this test?
Return: no

Enquiry: Which outcome was assigned to CN1CCN(CCOc2ccc3sc(CNc4nncc(-c5c(Cl)cccc5Cl)n4)nc3c2)CC1 in this test?
Return: no

Enquiry: Which outcome was assigned to NCCN(CCN)CCNC(=O)COc1ccc2sc(CNc3nncc(-c4c(Cl)cccc4Cl)n3)nc2c1 in this test?
Return: no

Enquiry: Which outcome was assigned to Cc1cc(NCCN(C)C)cc(C)c1-c1cnnc(NCc2nc3cc(OCCN)ccc3s2)n1 in this test?
Return: no
